- Assay text: Percutaneous absorption of Apomine: plasma level after topical application
- Format: in vivo, female Swiss nude (nu/nu) mice
- Condition context: female, Swiss nude (nu/nu), mouse, 1 mg topically (20 μl of 50 mg/ml in acetone) daily for 24 days, three hours after the last application, n=6

Structure string	concentration at 3 h (ng/mL)
CC(C)OP(=O)(OC(C)C)C(Cc1cc(C(C)(C)C)c(O)c(C(C)(C)C)c1)P(=O)(OC(C)C)OC(C)C	1120

====

- Assay text: Percutaneous absorption of Apomine: plasma level after topical application
- Assay type: in vivo, female Swiss nude (nu/nu) mice
- Condition context: female, Swiss nude (nu/nu), mouse, 1 mg topically daily for 24 days, three hours after the last application
- Experimental: Plasma concentrations of Apomine are measured with a Hewlett Packard gas chromatograph using a nitrogen phosphorus detector and HP-5 15 m×0.32 mm column. Alberts et al., 2001). Apomine is extracted from plasma with methyl t-butyl ether (MTBE). To 250 μl of plasma sample, 10 μl of a methanolic solution of the internal standard (n-propyl phoposhonate analog of Apomine) at a final concentration of 4 μg/ml are added and mixed by vortexing. […]

Structure string	concentration at 3 h / nM
CC(C)OP(=O)(OC(C)C)C(Cc1cc(C(C)(C)C)c(O)c(C(C)(C)C)c1)P(=O)(OC(C)C)OC(C)C	2000
